# protocol: Solid-liquid equilibrium temperature
# conditions_used: 20000 kPa; Crystal; visual observation
assay_readout: Solid-liquid equilibrium temperature (K)

Data request: Please report the recorded Solid-liquid equilibrium temperature for `CCCCCCCCCCCCCCC1CCCCC1` .
Data returned: 302.2

Data request: Give its Solid-liquid equilibrium temperature value. Item: `CCCCCCCCCCCCCCCCCCC1CCCCC1`
Data returned: 319.3

Data request: Reported Solid-liquid equilibrium temperature for `CCCCCCCCCCCC1CCCCC1` : what is it?
Data returned: 276.8

Data request: Entry `CCCCCCCCCCCCCC1CCCCC1` : reported Solid-liquid equilibrium temperature = ?
Data returned: 291.7

Data request: Name the reported Solid-liquid equilibrium temperature value associated with the compound `CCCCCCCCCCC1CCCCC1`
Data returned: 276

----------
# protocol: Solid-liquid equilibrium temperature
# conditions_used: 100 kPa; Crystal; visual observation
assay_readout: Solid-liquid equilibrium temperature (K)

Data request: Param item = `CCCCCCCCCCCCC1CCCCC1` ; retrieve measured Solid-liquid equilibrium temperature.
Data returned: 285.8

Data request: Endpoint output: Solid-liquid equilibrium temperature of `CCCCCCCCCCCCCCCCCCCC1CCCCC1` . Value?
Data returned: 315.7

Data request: What value of Solid-liquid equilibrium temperature has been recorded for this entry: `CCCCCCCCCCCCCCC1CCCCC1`
Data returned: 297.2

Data request: Find the recorded Solid-liquid equilibrium temperature belonging to `CCCCCCCCCCCC1CCCCC1` and report it.
Data returned: 272.4

Data request: Give the measured Solid-liquid equilibrium temperature of `CCCCCCCCCCCCCCCCCCC1CCCCC1` .
Data returned: 314.3

Data request: Need Solid-liquid equilibrium temperature, item `CCCCCCCCCCC1CCCCC1`
Data returned: 271.3

Data request: Tell me the measured Solid-liquid equilibrium temperature of `CCCCCCCCCCCCCCCC1CCCCC1` , please.
Data returned: 298.1

Data request: So what does the record say about Solid-liquid equilibrium temperature for `CCCCCCCCCCCCCC1CCCCC1` ?
Data returned: 286.9
